- assay.summary: Chemical stability of compound in 0.1 N HCl assessed as parent compound remaining measured after 24 hrs
- Type: physicochemical
- conditions.used: read-out: Stability
observed.property: remaining at 24 h (%)
Record the value in %, omitting the unit from your answer.

Entry under review: `O=C(CNc1nonc1/C(=N/O)N[C@H]1Cc2ccc(F)cc21)NCCO` . Reported remaining at 24 h?
96.2

====

- assay.summary: Intrinsic clearance in rat
- Type: ADME
observed.property: CLint scaled (L/h/kg)
Entry rule: numbers only, all in L/h/kg.

Would you mind telling me what CLint scaled value was observed for `NC(=O)CNc1nonc1/C(=N/O)N[C@H]1Cc2ccc(F)cc21` ?
29.9

Look up CLint scaled for this molecule: `NS(=O)(=O)NCCNc1nonc1/C(=N/O)N[C@H]1Cc2ccc(F)cc21`
27.8

Entry under review: `NS(=O)(=O)NCCSc1nonc1/C(=N/O)N[C@H]1Cc2ccc(F)cc21` . Reported CLint scaled?
58.6

Param item = `Nc1nonc1/C(=N/O)N[C@H]1Cc2ccc(F)cc21` ; retrieve measured CLint scaled.
443

Look up CLint scaled: `CC(=O)NCCNc1nonc1/C(=N/O)N[C@H]1Cc2ccc(F)cc21`
213

What does the data say about its CLint scaled? Entry: `CC(=O)NCCSc1nonc1/C(=N/O)N[C@H]1Cc2ccc(F)cc21`
113

Endpoint output: CLint scaled of `O=C(CSc1nonc1/C(=N/O)N[C@H]1Cc2ccc(F)cc21)NCCO` . Value?
150

Which CLint scaled is reported for this molecule? `O=C(CNc1nonc1/C(=N/O)N[C@H]1Cc2ccc(F)cc21)NCCO`
6.72
